experimental_target: Cholinesterase (Homo sapiens)
assay_comment: Inhibition of BuChE (unknown origin) at 10 uM by spectrophotometric analysis based Ellman's assay
# cutoff 30% applies to inhibition; >= gives yes, < gives no

Known results for molecules:
COc1ccc2[nH]c3c(C(=O)c4ccc(C(F)(F)F)cc4)nccc3c2c1 = yes
Fc1ccc(-c2nccc3c2[nH]c2ccccc23)cc1 = yes
COc1ccc2[nH]c3c(C(=O)c4ccc(F)cc4)nccc3c2c1 = no
COc1ccc2[nH]c3c(-c4ccc(F)cc4)nccc3c2c1 = yes
Cc1ccc2[nH]c3c(-c4ccccc4)nccc3c2c1 = yes

Continue with the next molecule.
[Q] Is it the case that O=C(c1ccccc1)c1nccc2c1[nH]c1ccccc12 has inhibition reaching or exceeding 30%?
[A] no

====

assay_comment: Antioxidant activity assessed as DPPH radical scavenging activity at 10 uM
Assay type: functional
parameter: Activity (%)
Provide only the numeric value, understood in %.

Below: 5 molecules and their reported Activity.
COc1ccc2[nH]c3c(C(=O)c4ccc(F)cc4)nccc3c2c1 = -4
O=C1O[C@H]([C@@H](O)CO)C(O)=C1O = 15
Cc1c(C)c2c(c(C)c1O)CCC(C)(C(=O)O)O2 (centres undefined) = 23
O=C(c1ccccc1)c1nccc2c1[nH]c1ccccc12 = -3
COc1ccc2[nH]c3c(-c4ccc(F)cc4)nccc3c2c1 = -13

[Q] Item c1ccc2c(-c3nccc4c3[nH]c3ccccc34)cccc2c1 has what recorded Activity?
[A] -6

[Q] Entry COc1ccc2[nH]c3c(-c4ccc(C)cc4)nccc3c2c1 : reported Activity = ?
[A] -12

====

In this section we review reported IC50 values for a set of molecules.
experimental_target: UniProtKB P06276
Numbers only here, please. The scale is µM.

Fc1ccc(-c2nccc3c2[nH]c2ccccc23)cc1 = 4.27
COc1ccc2[nH]c3c(-c4ccccc4)nccc3c2c1 = 4.48
O=C(c1ccc(C(F)(F)F)cc1)c1nccc2c1[nH]c1ccccc12 = 1.29

We next turn to a different molecule, shown below.
[Q] Using the record for c1ccc2c(-c3nccc4c3[nH]c3ccccc34)cccc2c1 , report its IC50.
[A] 0.22

====

Entries and their Activity
assay_comment: Antioxidant activity assessed as ABTS free radical scavenging activity at 10 uM
Type: functional
# unit: % | format: bare number

Cc1c(C)c2c(c(C)c1O)CCC(C)(C(=O)O)O2 (stereo not drawn) = 26
COc1ccc2[nH]c3c(C(=O)c4ccc(F)cc4)nccc3c2c1 = 5
Fc1ccc(-c2nccc3c2[nH]c2ccccc23)cc1 = 22
COc1ccc2[nH]c3c(C(=O)c4ccc(C(F)(F)F)cc4)nccc3c2c1 = 3

[Q] Query: Activity; subject: COc1ccc2[nH]c3c(-c4ccccc4)nccc3c2c1
[A] 16

[Q] Item under review: COc1ccc2[nH]c3c(-c4ccc(F)cc4)nccc3c2c1 . Reported Activity?
[A] 15

[Q] Field request: Activity | item: c1ccc2c(-c3nccc4c3[nH]c3ccccc34)cccc2c1
[A] 14

[Q] If you can, please state the reported Activity value of Cc1ccc2[nH]c3c(-c4ccccc4)nccc3c2c1 .
[A] 10

====

experimental_target: Cholinesterase (Homo sapiens, UniProt P06276)
Sequence (P06276 whole entry): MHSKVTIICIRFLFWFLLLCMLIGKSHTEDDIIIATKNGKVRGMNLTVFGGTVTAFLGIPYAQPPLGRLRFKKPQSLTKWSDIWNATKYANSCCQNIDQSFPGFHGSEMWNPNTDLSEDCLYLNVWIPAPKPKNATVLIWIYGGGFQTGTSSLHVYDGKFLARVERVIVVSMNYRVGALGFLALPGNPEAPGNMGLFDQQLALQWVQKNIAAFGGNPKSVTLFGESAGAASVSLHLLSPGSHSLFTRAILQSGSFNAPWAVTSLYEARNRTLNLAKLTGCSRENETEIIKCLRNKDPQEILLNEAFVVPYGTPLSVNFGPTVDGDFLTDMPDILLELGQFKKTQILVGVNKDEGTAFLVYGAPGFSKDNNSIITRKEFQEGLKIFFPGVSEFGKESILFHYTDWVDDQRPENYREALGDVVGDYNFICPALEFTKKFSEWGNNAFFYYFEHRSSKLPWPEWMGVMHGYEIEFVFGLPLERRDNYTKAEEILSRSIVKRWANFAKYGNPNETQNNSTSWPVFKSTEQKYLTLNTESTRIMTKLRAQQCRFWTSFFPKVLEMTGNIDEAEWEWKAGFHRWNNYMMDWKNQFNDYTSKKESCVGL
pIC50: −log10 of the molar value.
parameter: pIC50

COc1ccc2[nH]c3c(-c4ccc(F)cc4)nccc3c2c1 = < 5.00
Cc1ccc2[nH]c3c(-c4ccccc4)nccc3c2c1 = 5.51

[Q] Fill in the blank: the reported pIC50 of c1ccc(-c2nccc3c2[nH]c2ccccc23)cc1 is ____.
[A] < 5.00

[Q] // query pIC50 value for entry COc1ccc2[nH]c3c(-c4ccc(C)cc4)nccc3c2c1
[A] < 5.00

[Q] Would you mind telling me what pIC50 value was observed for COc1ccc2[nH]c3c(C(=O)c4ccc(F)cc4)nccc3c2c1 ?
[A] < 5.00

[Q] Need pIC50 of COc1ccc2[nH]c3c(C(=O)c4ccc(C(F)(F)F)cc4)nccc3c2c1 , thanks.
[A] 5.85

Source listed as ChEMBL document CHEMBL3870350.
